EXPERIMENTAL PROTOCOL: 14C assay with IPTG-induced recombinant E. coli cells (14CO2 capture from [14C]-carboxyl-labeled dicamba)
COND: IPTG-induced recombinant E. coli cells; [14C]-carboxyl-labeled dicamba; 14CO2 capture
MEASURED ATTRIBUTE: Dicamba Decarboxylase Activity

12 (protein, listed as Zymoseptoria tritici) MALGKVAFEEAFALPRFKERTTWWAGLFAVDPEKHTREINDINKLRIEKMDQFGVGYTLLSYTAPGVQDVWQQEEADALAREVNDHVAAEIKGHEDRLGALATLSMHDPQTASAELRRCIKDYGFKGALVNDTQRNDESGTGMIFYDGPEWDVFWSTVQELDVPFYLHPRNPTGVFMEKLWAPRKWLVGPPLSFAQGVSLHLLGMVTNGTFDRFPNLQVIIGHLGEHLPFDLWRINHWFEDIKKPLGLDCKKTIREYFNENIWITTSGHFSTPTLEYCIKEIGAERILFSIDYPFEKFEDACDWYDGVELDGPDTVKKIGRENAKKLFKLGAFKDDSA: No
83 (protein, listed as Mycobacterium rhodesiae) MALIALEEHYAWSPVSAGNVVGSWLETHNVTAYQRLYDRGPLRLEQMDAAGIDFQILSLFDPGVQDDDDTARAVENARRANDDLAETVRAAPDRFGGFATLAPQDPDAAAAELERAVGELGLVGGLINGHTHGRYLDDPAYLGLFECAQRLGVPIYLHPTTPHPAVMDAWFAPYVKDGLHLASWGFAAETGTHALRLIYSGLFDTFPRLQMILGHLGEMLPYAAYRIDRYYGLGGGDDGGRLARLPSEYLRDNFHVTTSGNFNPVAFACALDVMGPDRLMFSVDYPMDDNVTGAEFLRNLEVDDDVRRKVAGENALQLFGDKIPRR: Low
